# EXPERIMENTAL_TARGET: Transient receptor potential cation channel subfamily V member 1 (Homo sapiens, UniProt Q8NER1)
# Sequence (Q8NER1 whole entry): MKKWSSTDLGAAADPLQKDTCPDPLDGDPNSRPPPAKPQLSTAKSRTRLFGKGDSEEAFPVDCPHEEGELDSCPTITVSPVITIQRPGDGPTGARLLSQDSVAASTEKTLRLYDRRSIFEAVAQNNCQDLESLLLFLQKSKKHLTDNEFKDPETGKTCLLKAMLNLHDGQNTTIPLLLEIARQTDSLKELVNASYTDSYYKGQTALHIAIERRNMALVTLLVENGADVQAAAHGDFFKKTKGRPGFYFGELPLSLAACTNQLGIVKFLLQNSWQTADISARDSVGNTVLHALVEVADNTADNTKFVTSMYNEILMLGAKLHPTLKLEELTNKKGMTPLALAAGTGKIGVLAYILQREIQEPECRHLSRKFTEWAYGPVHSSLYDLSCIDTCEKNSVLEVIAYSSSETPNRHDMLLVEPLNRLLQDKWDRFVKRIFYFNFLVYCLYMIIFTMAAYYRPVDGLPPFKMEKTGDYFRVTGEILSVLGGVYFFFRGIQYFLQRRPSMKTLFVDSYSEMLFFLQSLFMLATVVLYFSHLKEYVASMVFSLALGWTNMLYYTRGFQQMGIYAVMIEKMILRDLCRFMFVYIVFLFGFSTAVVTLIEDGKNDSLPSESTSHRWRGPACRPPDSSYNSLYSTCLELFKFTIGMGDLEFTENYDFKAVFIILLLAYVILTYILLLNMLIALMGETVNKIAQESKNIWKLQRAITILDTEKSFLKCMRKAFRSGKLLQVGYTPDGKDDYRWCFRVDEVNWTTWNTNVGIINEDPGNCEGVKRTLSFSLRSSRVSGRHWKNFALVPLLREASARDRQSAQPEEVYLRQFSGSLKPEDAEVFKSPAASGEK
# ASSAY_PROTOCOL: Increased [Ca2+] influx in HEK293 cell […] human vanilloid receptor subtype 1
PROPERTY_MEASURED: EC50 (nM)
# number only, unit nM dropped from output

Determine its reported EC50: O=C(NCCSCc1cccc(C(F)(F)F)c1)N1CCSCC1
390

* * *

Below, each of the compounds is paired with its reported pKi value.
# EXPERIMENTAL_TARGET: Transient receptor potential cation channel subfamily V member 1 (Homo sapiens)
# ASSAY_PROTOCOL: Binding affinity towards cloned human vanilloid receptor subtype 1 in HEK293 cell membranes using [3H]RTX as radioligand
// scale note: pKi = -log10(conc_M); give the bare number

Some compounds with recorded pKi:
O=C(NCc1ccc(C(F)(F)F)cc1)Nc1cccc2ccc(O)cc12 : 9.00
O=C(NCc1cccc(C(F)(F)F)c1)Nc1cccc2ccc(O)cc12 : 8.68
O=C(NCc1ccc(OC(F)(F)F)cc1)Nc1cccc2ccc(O)cc12 : 9.00
O=C(CCc1ccc(Cl)cc1)Nc1cccc2ccc(O)cc12 : 8.01
O=C(NCCc1ccc(Cl)c(Cl)c1)Nc1cccc2ccc(O)cc12 : 9.00
O=C(NCc1ccc(Cl)c(Cl)c1)Nc1cccc2ccc(O)cc12 : 8.70
O=C(NCc1ccc(F)c(F)c1)Nc1cccc2ccc(O)cc12 : 8.15
Oc1cc2c(cc1O)CN(C(=S)NCCc1ccc(Cl)cc1)CCC2 [CAPSAZEPINE] : 6.92

Supply pKi value. Item: O=C(CCc1ccc(Cl)c(Cl)c1)Nc1cccc2ccc(O)cc12
8.34

Report pKi, nothing else, for this compound: CC(NC(=O)Nc1cccc2ccc(O)cc12)c1ccc(C(F)(F)F)cc1 (stereo not given)
8.40
